I'd be grateful if you could share measured pKd for these entries.
- testSystem: T1, Growth hormone variant (human, UniProt P01242 27-217)
- T1 construct: Growth hormone variant, human, UniProt P01242; see the manufacturer's catalogue number; also called GH-V; source: bought: R&D Systems (source E. coli)
- T1 sequence (P01242 27-217, change not shown): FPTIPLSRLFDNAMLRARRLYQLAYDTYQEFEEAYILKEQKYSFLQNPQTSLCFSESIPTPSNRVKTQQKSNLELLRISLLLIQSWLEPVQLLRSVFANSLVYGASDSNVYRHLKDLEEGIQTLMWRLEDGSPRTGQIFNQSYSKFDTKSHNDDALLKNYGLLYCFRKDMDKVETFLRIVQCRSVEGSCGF
- testMethodNotes: SPR; cytokine immobilised on ProteOn GLH sensor chip by amine coupling (9,000-14,000 RU); S100P (wild type or mutant) as analyte, 62 nM-16 µM; 25 °C; 10 mM HEPES, 150 mM NaCl, 1 mM CaCl2, 0.05% TWEEN 20, pH 7.4; heterogeneous ligand model (two ligand populations), one-site model for IL-13; values averaged over analyte concentrations (n = 3-5)
- conditionDescription: both partners purified
pKd: −log10 of the molar value.

Record request: pKd value, item Human S100P mutant Δ42–47 (lacks PGFLQS sequence in the 'hinge') (natural protein, S100P protein, human, recombinant, with residues 42-47 (PGFLQS) deleted; source: E. coli, prepared as previously described [28]) MTELETAMGMIIDVFSRYSGSEGSTQTLTKGELKVLMEKELGKDKDAVDKLLKDLDANGDAQVDFSEFIVFVAAITSACHKYFEKAGLK
< 4.00

Record request: pKd value, item Human S100P mutant F89A (natural protein, S100P protein, human, recombinant, with F89A; source: E. coli, prepared as previously described [28]) MTELETAMGMIIDVFSRYSGSEGSTQTLTKGELKVLMEKELPGFLQSGKDKDAVDKLLKDLDANGDAQVDFSEFIVFVAAITSACHKYAEKAGLK
< 4.00
